- subject.of.test: HDAC1 (Homo sapiens)
- Sequence (Q13547 whole entry): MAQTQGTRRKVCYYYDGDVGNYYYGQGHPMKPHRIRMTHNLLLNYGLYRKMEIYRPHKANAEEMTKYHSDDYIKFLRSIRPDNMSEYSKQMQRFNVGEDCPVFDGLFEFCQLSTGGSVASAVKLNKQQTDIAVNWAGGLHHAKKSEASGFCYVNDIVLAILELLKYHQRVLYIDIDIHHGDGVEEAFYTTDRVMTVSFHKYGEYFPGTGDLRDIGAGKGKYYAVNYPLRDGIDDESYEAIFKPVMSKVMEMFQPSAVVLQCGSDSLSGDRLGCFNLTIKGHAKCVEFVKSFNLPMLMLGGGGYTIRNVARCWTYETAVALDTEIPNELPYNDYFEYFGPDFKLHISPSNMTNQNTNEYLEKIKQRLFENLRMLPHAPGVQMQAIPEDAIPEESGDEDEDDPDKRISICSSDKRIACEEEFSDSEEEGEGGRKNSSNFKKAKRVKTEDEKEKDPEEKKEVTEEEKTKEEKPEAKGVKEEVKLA
- protocol.summary: HDAC enzymatic assay, HDAC1
- Type: biochemical
- reported.conditions: Table 2, thio (SH) vs hydroxamate (CONHOH) MBG analogues; read-out: HDAC isoforms, 1 (IC50)
parameter: IC50

Consider the compound shown here: CC(=O)SCCCCC[C@H](NC(=O)[C@H]1CCC(=O)N1)C(=O)Nc1ccccc1 What is its recorded IC50? < 50 nM

Consider the compound shown here: O=C1NC[C@@H](c2ccccc2)[C@@H]1C(=O)N[C@@H](CCCCCS)C(=O)Nc1ccccc1 What is its recorded IC50? < 50 nM

# ---- query compound ----
Consider the compound shown here: O=C1CC[C@H](C(=O)N[C@@H](CCCCCS)C(=O)Nc2ccccc2)N1 What is its recorded IC50? < 50 nM

###

Reported IC50 by item:
- subject.of.test: HDAC7 (Homo sapiens, UniProt Q8WUI4)
- Sequence (Q8WUI4 whole entry): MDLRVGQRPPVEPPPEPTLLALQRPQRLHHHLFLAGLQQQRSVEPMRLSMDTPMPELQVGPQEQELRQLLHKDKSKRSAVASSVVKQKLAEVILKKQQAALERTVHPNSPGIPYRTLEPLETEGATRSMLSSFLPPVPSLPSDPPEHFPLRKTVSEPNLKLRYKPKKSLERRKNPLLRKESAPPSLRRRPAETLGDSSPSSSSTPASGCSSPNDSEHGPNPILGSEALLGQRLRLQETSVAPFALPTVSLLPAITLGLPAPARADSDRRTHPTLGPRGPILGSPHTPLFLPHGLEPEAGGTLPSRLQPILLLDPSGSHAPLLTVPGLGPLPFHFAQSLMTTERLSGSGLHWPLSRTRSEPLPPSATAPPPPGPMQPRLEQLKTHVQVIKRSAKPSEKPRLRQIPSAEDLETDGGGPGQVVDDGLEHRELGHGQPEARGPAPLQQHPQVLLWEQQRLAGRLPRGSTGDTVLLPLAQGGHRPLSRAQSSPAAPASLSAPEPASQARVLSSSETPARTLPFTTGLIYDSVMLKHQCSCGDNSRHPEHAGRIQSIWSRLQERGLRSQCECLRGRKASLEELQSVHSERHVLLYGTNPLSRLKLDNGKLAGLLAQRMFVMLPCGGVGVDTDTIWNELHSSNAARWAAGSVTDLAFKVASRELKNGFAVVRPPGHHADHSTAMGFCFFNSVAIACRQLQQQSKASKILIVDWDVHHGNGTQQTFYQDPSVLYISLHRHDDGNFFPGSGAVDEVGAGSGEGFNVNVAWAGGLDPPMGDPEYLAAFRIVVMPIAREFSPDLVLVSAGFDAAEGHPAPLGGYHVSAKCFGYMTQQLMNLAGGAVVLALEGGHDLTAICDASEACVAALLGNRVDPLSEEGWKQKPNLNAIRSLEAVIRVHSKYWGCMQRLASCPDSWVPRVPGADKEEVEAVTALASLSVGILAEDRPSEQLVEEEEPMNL
- protocol.summary: HDAC enzymatic assay, HDAC7
- Assay type: biochemical
- reported.conditions: fluorogenic tetrapeptide RHKKAc substrate 10 μM; read-out: HDAC isoforms IC50 (nM), 7

Examples from the recorded data:
Consider the compound shown here: O=C1NC[C@@H](c2ccccc2)[C@H]1C(=O)N[C@@H](CCCCCS)C(=O)Nc1ccccc1 [Example 29] What is its recorded IC50? 100 to 500 nM

Consider the compound shown here: O=C1NCCC[C@@H]1C(=O)N[C@@H](CCCCCS)C(=O)Nc1ccccc1 [Example 36] What is its recorded IC50? 50 to 100 nM

Consider the compound shown here: O=C1CCC[C@H](C(=O)N[C@@H](CCCCCS)C(=O)Nc2ccccc2)N1 [Example 37] What is its recorded IC50? 100 to 500 nM

---
Consider the compound shown here: O=C1NC[C@@H](c2ccccc2)[C@@H]1C(=O)N[C@@H](CCCCCS)C(=O)Nc1ccccc1 [Example 31] What is its recorded IC50? < 50 nM

Consider the compound shown here: O=C1CCC[C@@H](C(=O)N[C@@H](CCCCCS)C(=O)N2CCc3ccccc3C2)N1 [Example 32] What is its recorded IC50? 100 to 500 nM

Consider the compound shown here: O=C1NCCC[C@H]1C(=O)N[C@@H](CCCCCS)C(=O)Nc1ccccc1 [Example 35] What is its recorded IC50? < 50 nM

Consider the compound shown here: Cc1cccc(NC(=O)[C@H](CCCCCS)NC(=O)[C@@H]2CCCC(=O)N2)c1 [Example 38] What is its recorded IC50? < 50 nM

Consider the compound shown here: Cc1ccc(NC(=O)[C@H](CCCCCS)NC(=O)[C@@H]2CCCC(=O)N2)cc1 [Example 39] What is its recorded IC50? < 50 nM

Consider the compound shown here: O=C1CCC[C@@H](C(=O)N[C@@H](CCCCCS)C(=O)NC2CCCC2)N1 [Example 24] What is its recorded IC50? < 50 nM

Consider the compound shown here: O=C1CCC[C@@H](C(=O)N[C@@H](CCCCCS)C(=O)NCc2ccc(C(F)(F)F)cc2)N1 [Example 26] What is its recorded IC50? 100 to 500 nM

###

Reported IC50 by item:
- subject.of.test: HDAC5 (Homo sapiens)
- Sequence (Q9UQL6 whole entry): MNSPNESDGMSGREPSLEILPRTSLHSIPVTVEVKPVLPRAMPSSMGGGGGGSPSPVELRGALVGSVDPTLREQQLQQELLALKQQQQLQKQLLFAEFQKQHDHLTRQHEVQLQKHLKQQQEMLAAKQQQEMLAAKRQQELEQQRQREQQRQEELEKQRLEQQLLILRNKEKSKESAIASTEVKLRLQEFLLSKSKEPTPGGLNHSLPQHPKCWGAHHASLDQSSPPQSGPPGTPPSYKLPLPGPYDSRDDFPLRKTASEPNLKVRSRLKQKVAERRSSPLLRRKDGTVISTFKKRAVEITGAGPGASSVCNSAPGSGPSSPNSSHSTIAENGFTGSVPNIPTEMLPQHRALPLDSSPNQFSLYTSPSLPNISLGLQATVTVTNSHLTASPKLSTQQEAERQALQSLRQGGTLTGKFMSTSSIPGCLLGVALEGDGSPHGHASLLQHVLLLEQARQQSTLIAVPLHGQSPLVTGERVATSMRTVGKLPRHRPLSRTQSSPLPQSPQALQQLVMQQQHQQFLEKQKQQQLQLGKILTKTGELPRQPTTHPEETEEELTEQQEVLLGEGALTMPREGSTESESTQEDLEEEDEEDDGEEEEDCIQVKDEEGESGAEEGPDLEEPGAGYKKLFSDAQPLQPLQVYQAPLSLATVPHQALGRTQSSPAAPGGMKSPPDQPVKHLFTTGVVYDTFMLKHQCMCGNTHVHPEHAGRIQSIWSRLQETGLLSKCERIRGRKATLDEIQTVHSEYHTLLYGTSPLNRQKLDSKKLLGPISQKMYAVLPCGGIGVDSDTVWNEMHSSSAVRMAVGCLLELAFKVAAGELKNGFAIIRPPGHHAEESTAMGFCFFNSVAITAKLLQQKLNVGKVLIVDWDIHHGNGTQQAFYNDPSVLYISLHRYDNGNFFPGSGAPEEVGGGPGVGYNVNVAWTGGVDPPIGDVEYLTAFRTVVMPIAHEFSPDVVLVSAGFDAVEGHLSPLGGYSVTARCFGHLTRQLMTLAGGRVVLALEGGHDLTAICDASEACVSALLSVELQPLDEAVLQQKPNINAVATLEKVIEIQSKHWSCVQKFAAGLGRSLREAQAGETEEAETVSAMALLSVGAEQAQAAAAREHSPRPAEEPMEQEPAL
- protocol.summary: HDAC enzymatic assay, HDAC5
- Assay type: biochemical
- reported.conditions: Table 2, thio (SH) vs hydroxamate (CONHOH) MBG analogues; read-out: HDAC isoforms, 5 (IC50)

Consider the compound shown here: O=C1NC[C@@H](c2ccccc2)[C@@H]1C(=O)N[C@@H](CCCCCS)C(=O)Nc1ccccc1 What is its recorded IC50? < 50 nM

Consider the compound shown here: CC(=O)SCCCCC[C@H](NC(=O)[C@H]1CCC(=O)N1)C(=O)Nc1ccccc1 What is its recorded IC50? < 50 nM

---
Consider the compound shown here: O=C1CC[C@H](C(=O)N[C@@H](CCCCCS)C(=O)Nc2ccccc2)N1 What is its recorded IC50? < 50 nM

From: patent US8927533B2
